Reference source for all entries: patent US20240391903A1

Catalogue of Cmax readings, one per entry.
assay name: Pharmacokinetic evaluation in mouse plasma after oral gavage
Type: in vivo
stated conditions: 30 mg/kg oral, based on mean concentrations
The reply should be a number in ng/mL, with the unit left off.

molecule | output unit | Cmax
O=C(OCc1cc(C(F)(F)F)cc(C(F)(F)F)c1)N1CCN(CCS(=O)(=O)c2ccc3nn[nH]c3c2)CC1 [MJK2134025] | ng/mL | 56400

Quick check: Cmax of CCc1nc2c(C)cc(N3CCN(CC(=O)N4CC(O)C4)CC3)cn2c1N(C)c1nc(-c2ccc(F)cc2)c(C#N)s1 [GLPG1690, reference compound] ?
35200

---

Catalogue of IC50 readings, one per entry.
study target: ATX (Homo sapiens)
Construct: purchased
assay name: ATX activity assay (Autotaxin inhibitor test kit, fluorescent ATX substrate)
Type: biochemical
stated conditions: read-out: IC50 (nM) ATX inhibition
The reply should be a number in nM, with the unit left off.

mol smiles | measured number
O=C(CS(=O)(=O)c1ccc2nn[nH]c2c1)N1CCN(C(=O)OCc2cc(C(F)(F)F)cc(C(F)(F)F)c2)CC1 | 2
O=C(CSc1ccc2nn[nH]c2c1)N1CCN(C(=O)OCc2cc(C(F)(F)F)cc(C(F)(F)F)c2)CC1 | 4

Then there is this compound:
Quick check: IC50 of O=C(OCc1cc(C(F)(F)F)cc(C(F)(F)F)c1)N1CCN(CCS(=O)(=O)c2ccc3nn[nH]c3c2)CC1 ?
1.8

---

Catalogue of CC50 at 72 h readings, one per entry.
assay name: Cytotoxicity testing in HeLa cells (methylene blue)
Type: cell-based
stated conditions: human, HeLa cells (DSM ACC 57), 72 hours incubation
The reply should be a number in nM, with the unit left off.

molecule | endpoint | measured number
O=C(CSc1ccc2nn[nH]c2c1)N1CCN(C(=O)OCc2cc(C(F)(F)F)cc(C(F)(F)F)c2)CC1 [MJK2234001] | CC50 at 72 h | 6200
O=C(CS(=O)(=O)c1ccc2nn[nH]c2c1)N1CCN(C(=O)OCc2cc(C(F)(F)F)cc(C(F)(F)F)c2)CC1 [MJK2234002] | CC50 at 72 h | 67800

Then there is this molecule:
Quick check: CC50 at 72 h of O=C(OCc1cc(C(F)(F)F)cc(C(F)(F)F)c1)N1CCN(CCS(=O)(=O)c2ccc3nn[nH]c3c2)CC1 [MJK2134025] ?
45100

---

assay name: Pharmacokinetic evaluation in mouse plasma after oral gavage
Type: in vivo
stated conditions: 30 mg/kg oral, based on mean concentrations
Catalogue of Tmax readings, one per entry.
The reply should be a number in h, with the unit left off.

Quick check: Tmax of O=C(OCc1cc(C(F)(F)F)cc(C(F)(F)F)c1)N1CCN(CCS(=O)(=O)c2ccc3nn[nH]c3c2)CC1 ?
2

Next molecule: CCc1nc2c(C)cc(N3CCN(CC(=O)N4CC(O)C4)CC3)cn2c1N(C)c1nc(-c2ccc(F)cc2)c(C#N)s1 [GLPG1690, reference compound]
1
